Hello, the source for this data is PubChem BioAssay AID330, in case you need it.

System: P388 leukemia ip, CD2F1 mice, survival T/C
Test: NCI In Vivo Anticancer Drug Screen. Data for tumor model P388 Leukemia (intraperitoneal) in CD2F1 (CDF1) mice
Details: endpoint: median survival time; dose: 100.0 mg/kg/injection; schedule: Q01DX009 (ip); vehicle: saline with Tween-80; higher = longer survival
Inconclusive results and toxic doses are left out.
Please go through the items and note down their T/C.

Which T/C value is on record for CC1=NN(C(=O)c2ccncc2)C(=O)C1N=Nc1ccc(S(=O)(=O)Nc2ncccn2)cc1 (centres undefined) ?
91 % of control

CC(SCc1ccccc1)C(N)C(=O)O (centres undefined) , same question.
103 % of control

`CC1(C)CC(=O)C2=C(C1)Nn1c(nnc1C(F)(F)F)S2` , same question.
110 % of control

`Oc1c(Cl)cc(Cl)cc1/C=N/c1nc(-c2ccc(Cl)cc2)cs1` , same question.
88 % of control

`Nc1cnc2ccccn12` , same question.
102 % of control

CCOC(=O)C(C(=O)c1ccccc1)C(=O)C(C)(C)C (centres undefined) , same question.
91 % of control

`CC(=O)Nc1cn(C)cc1[N+](=O)[O-]` , same question.
103 % of control

`CS(=O)(=O)c1cc(C(=O)O)cc(NCc2ccccc2)c1Oc1ccccc1` , same question.
96 % of control

`Cc1ccn2c([N+](=O)[O-])cnc2c1` , same question.
104 % of control

----------
Tested on: P388 leukemia ip, CD2F1 mice, survival T/C
Assay: NCI In Vivo Anticancer Drug Screen. Data for tumor model P388 Leukemia (intraperitoneal) in CD2F1 (CDF1) mice
Conditions: endpoint: median survival time; dose: 120.0 mg/kg/injection; schedule: Q01DX005 (ip); vehicle: saline with Tween-80; higher = longer survival
Inconclusive results and toxic doses are left out.
MEASURED ATTRIBUTE: T/C

Which T/C value is on record for `CCOc1ccc(/C=N/NC(=O)CC2CCCCC2)cc1OC` ?
87 % of control

`N#CC(=Nc1cccc(F)c1)C1=C(O)c2ccccc2C1=O` , same question.
97 % of control

`COc1ccc2cc(C(=O)c3ccccc3)c(=O)oc2c1` , same question.
96 % of control

`CN(C)CCOC(=O)Nc1cc(Cl)cc(Cl)c1` , same question.
103 % of control

----------
System: P388 leukemia ip, CD2F1 mice, survival T/C
Assay: NCI In Vivo Anticancer Drug Screen. Data for tumor model P388 Leukemia (intraperitoneal) in CD2F1 (CDF1) mice
Conditions: endpoint: median survival time; dose: 100.0 mg/kg/injection; schedule: Q01DX005 (ip); vehicle: saline; higher = longer survival
Inconclusive results and toxic doses are left out. Peptide text beside a SMILES is read from it.
MEASURED ATTRIBUTE: T/C

Lab request: please report T/C under test system P388 leukemia ip, CD2F1 mice, survival T/C for CC1=NC(C)(Cc2ccccc2)SC1c1ccccc1 (centres undefined)
106 % of control

CCC(C)N(CC)CCNc1cc(OC)cc2cccnc12 (centres undefined) , same question.
99 % of control

`CCN(CC)CCCNc1cc(OC)cc2nc3cc(Cl)ccc3nc12` , same question.
106 % of control

NC(CCC(=O)O)C(=O)NC(Cc1c[nH]c2ccccc12)C(=O)NC(CCC(=O)O)C(=O)O (stereo not drawn) (H-Glu-Trp-Glu-OH; configuration not given here) , same question.
104 % of control
